conditions: 293.15 K; 101.33 kPa; Liquid; Pycnometric method
Give mass density for every item shown.
Numbers only, in kg/m3.

Would you please look over these solved cases?
>  <compound>
CCCC[n+]1cccc(C)c1.O=S(=O)([O-])C(F)(F)F [1-butyl-3-methylpyridinium trifluoromethanesulfonate]

>  <display.unit>
kg/m3

>  <mass density>
1306

$$$$
>  <compound>
CCCC[n+]1cccc(C)c1.F[B-](F)(F)F [1-butyl-3-methylpyridinium tetrafluoroborate]

>  <display.unit>
kg/m3

>  <mass density>
1189

$$$$
>  <compound>
CCCC[n+]1ccccc1.O=S(=O)([N-]S(=O)(=O)C(F)(F)F)C(F)(F)F [1-butylpyridinium bis[(trifluoromethyl)sulfonyl]imide]

>  <display.unit>
kg/m3

>  <mass density>
1462

$$$$

Give mass density for each listed item.
1. CC[n+]1ccccc1.O=S(=O)([N-]S(=O)(=O)C(F)(F)F)C(F)(F)F [1-ethylpyridinium bis[(trifluoromethyl)sulfonyl]imide]
2. CCCCCC[n+]1ccccc1.O=S(=O)([N-]S(=O)(=O)C(F)(F)F)C(F)(F)F [1-hexylpyridinium bis(trifluromethylsulfonyl)imide]
3. CCCC[n+]1ccccc1C.O=S(=O)([N-]S(=O)(=O)C(F)(F)F)C(F)(F)F
4. CCCC[n+]1ccc(C)cc1.O=S(=O)([N-]S(=O)(=O)C(F)(F)F)C(F)(F)F

[1534, 1386, 1482, 1419]

For the compound shown here, CCCC[n+]1cccc(C)c1.O=S(=O)([N-]S(=O)(=O)C(F)(F)F)C(F)(F)F , give the reported mass density. 1429

---

conditions: 303.15 K; 101.33 kPa; Liquid; Capillary tube (Ostwald / Ubbelohde) method
recorded.endpoint: viscosity (mPa·s)
One number for each entry, in mPa·s.

>  <compound>
CC[n+]1ccccc1.O=S(=O)([N-]S(=O)(=O)C(F)(F)F)C(F)(F)F [1-ethylpyridinium bis[(trifluoromethyl)sulfonyl]imide]

>  <viscosity, mPa·s>
33.31

$$$$
>  <compound>
CCCC[n+]1cccc(C)c1.O=S(=O)([O-])C(F)(F)F [1-butyl-3-methylpyridinium trifluoromethanesulfonate]

>  <viscosity, mPa·s>
101.27

$$$$

Next item in the queue.
# viscosity lookup, item CCCC[n+]1cccc(C)c1.F[B-](F)(F)F [1-butyl-3-methylpyridinium tetrafluoroborate] 129.06

---

For each of the compounds below, state its viscosity.
conditions: 293.15 K; 101.33 kPa; Liquid; Capillary tube (Ostwald / Ubbelohde) method
Give bare numbers, in mPa·s.

Answered examples (7):
>  <compound>
CCCC[n+]1ccccc1.O=S(=O)([N-]S(=O)(=O)C(F)(F)F)C(F)(F)F [1-butylpyridinium bis[(trifluoromethyl)sulfonyl]imide]

>  <viscosity / mPa·s>
75.61

$$$$
>  <compound>
CCCC[n+]1cccc(C)c1.O=S(=O)([O-])C(F)(F)F [1-butyl-3-methylpyridinium trifluoromethanesulfonate]

>  <viscosity / mPa·s>
142.15

$$$$
>  <compound>
CCCC[n+]1ccccc1C.O=S(=O)([N-]S(=O)(=O)C(F)(F)F)C(F)(F)F

>  <viscosity / mPa·s>
143.91

$$$$
>  <compound>
CCCC[n+]1cccc(C)c1.F[B-](F)(F)F [1-butyl-3-methylpyridinium tetrafluoroborate]

>  <viscosity / mPa·s>
226.15

$$$$
>  <compound>
CCCC[n+]1ccc(C)cc1.O=S(=O)([N-]S(=O)(=O)C(F)(F)F)C(F)(F)F

>  <viscosity / mPa·s>
65.26

$$$$
>  <compound>
CC[n+]1ccccc1.O=S(=O)([N-]S(=O)(=O)C(F)(F)F)C(F)(F)F [1-ethylpyridinium bis[(trifluoromethyl)sulfonyl]imide]

>  <viscosity / mPa·s>
47.43

$$$$
>  <compound>
CCCC[n+]1cccc(C)c1.O=S(=O)([N-]S(=O)(=O)C(F)(F)F)C(F)(F)F

>  <viscosity / mPa·s>
81.71

$$$$

Now for another entry.
Name the recorded viscosity for CCCCCC[n+]1ccccc1.O=S(=O)([N-]S(=O)(=O)C(F)(F)F)C(F)(F)F [1-hexylpyridinium bis(trifluromethylsulfonyl)imide] . 275.12
